Target: hGLP-1R (Homo sapiens, UniProt P43220)
Sequence (P43220 24-463): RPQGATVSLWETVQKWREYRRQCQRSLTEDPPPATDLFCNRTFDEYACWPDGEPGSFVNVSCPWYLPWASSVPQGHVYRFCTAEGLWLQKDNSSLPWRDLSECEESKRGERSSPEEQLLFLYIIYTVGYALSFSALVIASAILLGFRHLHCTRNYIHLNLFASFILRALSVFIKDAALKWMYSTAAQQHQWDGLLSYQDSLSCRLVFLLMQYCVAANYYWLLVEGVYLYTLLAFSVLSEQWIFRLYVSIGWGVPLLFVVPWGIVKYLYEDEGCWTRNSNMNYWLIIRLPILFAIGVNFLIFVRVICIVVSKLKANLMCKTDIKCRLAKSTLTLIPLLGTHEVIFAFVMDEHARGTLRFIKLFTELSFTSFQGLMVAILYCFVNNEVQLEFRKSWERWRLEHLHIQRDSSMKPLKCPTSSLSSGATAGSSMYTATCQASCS
Assay: cell-based or functional assay
Please respond with reported log10 of Relative cAMP EC50, nM (0.1% casein) for every item in the list.
# log10 transformed; quantity=Relative cAMP EC50, nM (0.1% casein); unit=nM

BINDER	REPORTED
YXQGTFTSDFSRXLDKKAQXAFIEYLLEGGESSGAPPPSGS (Aib, αMeL; lysine acylated C18 diacid; C-terminal amide; synthetic construct; SITE 2: note = 2-Aminoisobutyric Acid; SITE 13: note = alpha-methyl-leucine; SITE 17: note = Lysine is chemically modified through conjugation of the epsilon-amino group of the Lysine side chain with (2-[2-(2-Amino-ethoxy)-ethoxy]-acetyl)-(gamma-Glu)-CO-(CH2) 16-CO2H; SITE 20: n) [Example 148]	0.45
YXQGTFTSDFSQXLDKKAQXAFIEYLLEXGPSSGAPPPSGS (Lys acylated with AEEA-γGlu-C18 diacid; non-natural residues; C-amide; synthetic construct; SITE 2: note = 2-Aminoisobutyric Acid; SITE 13: note = alpha-methyl-leucine; SITE 17: note = Lysine is chemically modified through conjugation of the epsilon-amino group of the Lysine side chain with (2-[2-(2-Amino-ethoxy)-ethoxy]-acetyl)-(gamma-Glu)-CO-(CH2) 16-CO2H; SITE 20: n) [Example 151]	0.20
YXQGTFTSDFSXXLDKKAQXAFIEYLLEAGPSSGEPPPSGQ (Aib, Orn, alpha-methyl-Leu, D-Ala, lipidated Lys, amide; synthetic construct; SITE 2: note = 2-Aminoisobutyric Acid; SITE 12: note = L-ornithine; SITE 13: note = alpha-methyl-leucine; SITE 17: note = Lysine is chemically modified through conjugation of the epsilon-amino group of the Lysine side chain with (2-[2-(2-Amino-ethoxy)-ethoxy]-acetyl)2-(gamma-Glu)) [Example 157]	0.48
HXQGTXTSDXXIXLDXKAQXAFIEYLLEGGPSSGEPEPE (synthetic construct; SITE 2: note = 2-Aminoisobutyric Acid; SITE 6: note = alpha-methyl-2-fluoro-L-phenylalanine; SITE 10: note = 3-(4-Pyridyl)-L-alanine; SITE 11: note = alpha-methyl-L-serine; SITE 13: note = alpha-methyl-leucine; SITE 16: note = L-ornithine; SITE 17: note = Lysine is chemically mo) [Example 479]	-0.50
YXQGTFTSDFSXXLDKKAQXAFIEYLLEXGHSSGAPPPSGT (Aib, Orn, alpha-methyl-Leu, lipidated Lys, C-terminal amide; synthetic construct; SITE 2: note = 2-Aminoisobutyric Acid; SITE 12: note = L-ornithine; SITE 13: note = alpha-methyl-leucine; SITE 17: note = Lysine is chemically modified through conjugation of the epsilon-amino group of the Lysine side chain with (2-[2-(2-Amino-ethoxy)-ethoxy]-acetyl)2-(gamma-Glu)) [Example 182]	0.68

Memo: YXQGTXTSDXXIXLDXKAQXTFIEXLIEGGPSSGEPPPE (synthetic construct; SITE 2: note = 2-Aminoisobutyric Acid; SITE 6: note = alpha-methyl-2-fluoro-L-phenylalanine; SITE 10: note = 3-(4-Pyridyl)-L-alanine; SITE 11: note = alpha-methyl-L-serine; SITE 13: note = alpha-methyl-leucine; SITE 16: note = L-ornithine; SITE 17: note = Lysine is chemically mo) [Example 457] , reported log10 of Relative cAMP EC50, nM (0.1% casein): -0.65
